The measured values listed here are drawn from patent US20070265189A1.

- System tested: T1, soluble human insulin receptor-immunoglobulin heavy chain chimera (sIR-Fc; Bass et al., 1996) (human, UniProt P06213 28-956, limits assumed)
- T1 construct: extracellular domain; also called soluble IR (Bass construct); not shown: immunoglobulin heavy chain constant domains
- Procedure details: phage ELISA
Kindly supply the reported Ratio over Background values for the records listed here.

A selection of reference data follows.
INSERT INTO results (binder, recorded_value) VALUES
  ('RLFYCGIQALGANLGYSGCV [R20α-4-20A12-IR]', 2.4),
  ('RCGRELYHSTFYDWFDRQVAGRTCPS [H2CA-1-A7-IGFR]', 0.6),
  ('FRTLAAQHDSFYDWFDRQVSGAAGER [H2CA-3-C11-IGFR]', 1.6),
  ('NSRDGGFYLQLERLLGFPVTG [20E2B-3-D4-IGFR]', 0.8),
  ('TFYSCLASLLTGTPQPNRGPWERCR [20C-3-G3-IGFR]', 1.2);

Record Ratio over Background per entry; entries follow.
1. LGVTDGFYAALGYLIHGVGQF [20E2B-3-D11-IGFR]
2. LSVALSFYDALGQLVAGEGRW [20E2A-3-A12-IGFR]

1.6
1.1
